- System: NCI-H23 lung
- RUN_DESCRIPTION: NCI-60 one-dose screen, 48 h (100 = growth as untreated, 0 = no growth, -100 = all killed)
- APPLIED_CONDITIONS: 10 µM unless noted
The panel holds about 83,000 compounds, 20% with a hit somewhere; the sample as a whole holds those more often.
Threshold 90%. growth below it: Condition met. growth at it or above: Condition not met.

> print(dat)
                                   molecule  assigned.category
1  COc1ccc(/C=C2\Oc3cc(OCCCCN4CCCC4)ccc3C2=O)cc1      Condition met
2  CC[N+](CC)=c1sc2c(s1)C(c1ccc(Cl)cc1)Oc1ccc(Cl)cc1-2 (stereo not given)      Condition met
3  N#Cc1c(-c2ccc(Cl)cc2)nc(N/N=C/c2cccc(Br)c2)nc1N1CCOCC1  Condition not met
4  CCOc1cc2ncc(C#N)c(Nc3ccc(F)c(Cl)c3)c2cc1NC(=O)CC1CCSS1 (stereo not given)      Condition met

* * *

- Tested on: A549/ATCC NSCLC
- RUN_DESCRIPTION: NCI-60 one-dose screen, 48 h (100 = growth as untreated, 0 = no growth, -100 = all killed)
- APPLIED_CONDITIONS: 10 µM unless noted
Compounds without any hit were thinned out: in the full panel of roughly 83,000, 20% have a hit.
Note to self: use y only for growth readings below 30%; a reading exactly at 30% still gets n.

MOLECULE	ASSIGNED_CATEGORY
COc1ccc2nc(NC(=O)CSc3nnc4n3S(=O)(=O)c3ccccc3N4c3ccccc3)sc2c1	n
CC1CCNC(C)C1 (stereo not given)	n
COc1ccc(Nc2c3c4c(cccc4[nH]c2=O)C(=O)c2ccccc2-3)cc1	y
NC(N)=N/N=C(/c1ccccc1)c1ccc(F)cc1	y
Cc1cc(N2CCCC2)nc(NC2CCCC(Nc3ccnc4cc(Cl)ccc34)C2)n1 (stereo not given)	y
CC(C)C[C@@H](NC(=O)[C@@H](Cc1ccccc1)NC(=O)c1cnccn1)B1Oc2ccc(C[C@H](NC(=O)[C@H](Cc3ccc4c(c3)OB([C@@H](CC(C)C)NC(=O)[C@@H](Cc3ccccc3)NC(=O)c3cnccn3)O4)NC(=O)[C@@H](N)CC3CCC4OB([C@@H](CC(C)C)NC(=O)[C@@H](CC5CCCCC5)NC(=O)C5CNCCN5)OC4C3)C(=O)NCCCC[C@@H]3NC(=O)[C@@H](Cc4ccccc4)NC(=O)[C@H](CC(=O)O)NC(=O)CNC(=O)[C@H](CCCNC(=N)N)NC3=O)cc2O1 (stereo not given in full)	y
Cc1nc(/N=C(\N)NC(=O)Nc2cccc([N+](=O)[O-])c2)sc1C	n
c1ccc(-c2cc3n4c(-c5ccccc5)nn(-c5ccccc5)c4cnc-3n2)cc1	n
Oc1ccc(N=Cc2ccccc2O)cc1	n
COc1ccc(/C=C/c2nc3ccccc3nc2/C=C/c2ccc(OC)cc2)cc1	n
N#Cc1nnn(-c2ccc(S(N)(=O)=O)cc2)c1NCC(=O)c1ccccc1	n
Fc1ccc2[nH]cc(SSc3c[nH]c4ccc(F)cc34)c2c1	y
COc1cc(/C=C/C(=O)Nc2cccnc2Nc2ccc(F)cc2)cc(OC)c1OC	n
COc1ccc(-c2nn(-c3ccc(Cl)cc3)cc2-c2nc3ccccc3[nH]2)cc1	n
COc1ccc(-c2cc(=O)c3c(OC)c4ccoc4cc3o2)cc1	n
COc1cc(/C=C/C(=O)c2c(C)oc3nc[nH]c(=O)c23)cc(OC)c1OC	n
O=C(COc1ccc(-c2nc3cc(Cl)c(Cl)cc3[nH]2)cc1)N=Nc1c(O)[nH]c2ccccc12	y
CCCCCCN(CCCCCC)CCC(O)c1ccc2ccccc2c1 (stereo not given)	n
c1ccc(Cn2cc(-c3nc4ccccc4s3)c3cccnc32)cc1	n
CCCCC[C@H]1C/C=C2/C(=O)C=C[C@@H]2C/C=C\CCCC(=O)O1	y
COc1ccc2c(c1)C(=O)/C(=C/c1cccnc1)CC2	n
COc1ccc(-c2cc(C(=O)N=Nc3c(O)[nH]c4ccc(Br)cc34)no2)cc1	n
COc1ccc(C(=O)c2sc3nc4c(c(-c5cccnc5)c3c2N)CCCC4)cc1OC	n
COc1cccc(-c2nc3sccn3c2-c2ccnc(NCCCNS(=O)(=O)c3cccc(F)c3)c2)c1	y
COc1ccc2c(c1)C(=O)/C(=C/c1ccccn1)CC2	n
O=C1/C(=C(/c2ccccc2)N2CCOCC2)Cc2ccccc21	n
C=C(C)[C@@H]1CC[C@]2(C(N)=O)CC[C@]3(C)[C@H](CC[C@@H]4[C@@]5(C)C/C(=C/c6ccco6)C(=O)C(C)(C)[C@@H]5CC[C@]43C)[C@@H]12	n
C=CCSSc1ncnc2c1ncn2C1OC(CO)C(O)C1O (stereo not given)	n
OCCN1CCN(c2nc(Nc3ccc(-c4nc5ccccc5[nH]4)cc3)c3cn[nH]c3n2)CC1	y
CC(=O)O[C@H]1C(=O)[C@@]2(C)[C@H]([C@H](OC(=O)c3ccccc3)[C@]3(O)C[C@H](OC(=O)[C@H](OC(=O)CCC(=O)OC4CCC(S/N=C(N)/N=C(\N)N(C)C)CC4)[C@@H](NC(=O)c4ccccc4)c4ccccc4)C(C)=C1C3(C)C)[C@]1(OC(C)=O)CO[C@@H]1C[C@@H]2O (stereo not given in full)	y
C=C1c2nc3ccccc3n2C=C(c2ccc(Cl)cc2)N1Cc1ccc(OC)cc1	n
O=Nc1c(O)c(Cl)cc2ccccc12	n
CC(=O)c1cc2c(N)c(C(=O)Nc3cccc4ccccc34)sc2nc1C	y
CC[C@@H](C(=O)[C@@H](C)[C@@H](O)[C@H](C)[C@@H]1O[C@@H]([C@@H](CC)C(=O)O)CC[C@@H]1C)[C@H]1OC2(C=C[C@@H](O)[C@]3(CC[C@@](C)([C@H]4CC[C@](O)(CC)[C@H](C)O4)O3)O2)[C@H](C)C[C@@H]1C (stereo not given in full)	y

* * *

- System: A549/ATCC NSCLC
- RUN_DESCRIPTION: NCI-60 one-dose screen, 48 h (100 = growth as untreated, 0 = no growth, -100 = all killed)
- APPLIED_CONDITIONS: 10 µM unless noted
Compounds without any hit were thinned out: in the full panel of roughly 83,000, 20% have a hit.
Returns: string. Value is Fulfilled if measured growth is below 20%, and Not fulfilled if it is greater than or equal to it.

COMPOUND	ASSIGNED_CATEGORY
CC[C@@H]1O[C@H](O[C@@H](c2cnc[nH]2)[C@H](NC(=O)c2nc([C@H](CC(N)=O)NC[C@@H](N)C(N)=O)nc(N)c2C)C(=O)N[C@H](C)[C@H](O)[C@H](C)C(=O)N[C@@H](C(=O)NCCc2nc(-c3nc(C(=O)NCCCCN=C(N)N)cs3)cs2)[C@@H](C)O)[C@H](O[C@@H]2O[C@H](CO)[C@H](O)[C@H](OC(N)=O)[C@@H]2O)[C@H](C)[C@@H]1C	Not fulfilled
CC(C)(O)c1cn(CCCCN2C(=O)C(=O)c3ccccc32)nn1	Not fulfilled
COc1cc2nc(N3CCCC3)nc(NCCc3ccccc3)c2cc1OC	Fulfilled
CCN1CCN(c2nc(NCCNc3ccnc4cc(Cl)ccc34)c3ccccc3n2)CC1	Fulfilled
COc1ccc(S(=O)(=O)N2CCCCC2)cc1NC(=O)c1[nH]c(C)c2c1CCCCC2=O	Not fulfilled
COCCNc1ccc2c3c(cccc13)C(=O)N(CCN(C)C)C2=O	Fulfilled
COc1cc2c(cc1OC)C(Sc1ccc(SC)cc1)c1c(nc(N)c(C#N)c1N)O2 (configuration not stated)	Fulfilled
COc1ccc(S(=O)(=O)N2CCN(C)CC2)cc1NC(=O)c1[nH]c(C)c2c1CCCCC2=O	Not fulfilled
O=C(O)c1c(=O)cccc2ssc12	Fulfilled
Cc1ccc(OC(=O)c2ccc(Cl)cc2)cc1	Not fulfilled
COc1ccc(-c2cc(Nc3ccnc(N4CCOCC4)n3)on2)cc1	Not fulfilled
COc1ccc(Nc2cc(C)nc(N3CCN(c4ccnc5cc(Cl)ccc45)CC3)n2)cc1	Not fulfilled
COc1cc(/C=C/C(=O)c2ccc(O)c(CN3CCN(c4cc5c(cc4F)c(=O)c(C(=O)O)cn5C4CC4)CC3)c2)cc(OC)c1OC	Not fulfilled
CCNc1ncnc2c1cnn2C1CCCO1 (configuration not stated)	Not fulfilled
CCc1nnc(CNc2ccc(Cl)cc2)o1	Not fulfilled

* * *

- System: EKVX NSCLC
- RUN_DESCRIPTION: NCI-60 one-dose screen, 48 h (100 = growth as untreated, 0 = no growth, -100 = all killed)
- APPLIED_CONDITIONS: 10 µM unless noted
The panel holds about 83,000 compounds, 20% with a hit somewhere; the sample as a whole holds those more often.
Catalogue of growth readings, one per entry.
PARAMETER: growth (%)

> print(dat)
                                   compound  system.tested  parameter  reported.measurement
1  Nc1n[nH]c2cc(F)c([C@@H]3Nc4ccc5[nH]ncc5c4[C@H]4C5CCC(C5)[C@@H]34)cc12 (stereo not given in full)     EKVX NSCLC     growth                  47.2
2       COc1nc2c(c(=O)n1C)CN(Cc1ccccc1)C=N2     EKVX NSCLC     growth                   111
3  COc1cccc(-c2nc3sccn3c2-c2ccnc(NCCCNS(=O)(=O)c3cccc(Cl)c3)c2)c1     EKVX NSCLC     growth                  40.6
4  COc1ccc(-c2nc3cc(C(=O)Nc4cc(OC)c(OC)c(OC)c4)ccc3n2C2CCCCC2)cc1     EKVX NSCLC     growth                  91.8
5  CN(C)S(=O)(=O)c1ccc(S(=O)(=O)Nc2cccc(Cl)c2N2CCCCC2)cc1     EKVX NSCLC     growth                  68.2
